// provenance: patent US20240247080A1

- target: hNPY2R (Homo sapiens)
- Construct: expressed in transfected cells; host or cells: HEK-293 cells carrying a CRE-luciferase reporter gene
- Sequence (P49146 whole entry): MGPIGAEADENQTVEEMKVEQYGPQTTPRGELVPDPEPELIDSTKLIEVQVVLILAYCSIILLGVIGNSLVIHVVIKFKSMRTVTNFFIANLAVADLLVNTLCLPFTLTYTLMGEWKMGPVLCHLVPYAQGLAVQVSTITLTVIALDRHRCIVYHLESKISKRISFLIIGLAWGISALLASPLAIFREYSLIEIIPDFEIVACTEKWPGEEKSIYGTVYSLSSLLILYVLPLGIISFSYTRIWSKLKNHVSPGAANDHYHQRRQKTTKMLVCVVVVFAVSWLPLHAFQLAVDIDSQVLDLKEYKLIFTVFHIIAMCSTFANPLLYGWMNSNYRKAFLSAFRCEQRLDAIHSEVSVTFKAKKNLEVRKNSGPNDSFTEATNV
- method: hNPY2R CreLuc reporter gene assay in 0.5% and 100% plasma
- Format: cell-based
- assay-context: CreLuc reporter gene assay, 0.5% human plasma; read-out: hNPY2R 0.5% hP
Starred links: 1 amine or outer side, 2 acyl side, 3 side chain; linkers in the order of their positions; H or OH if unused. Non-standard residues stand in square brackets, D forms with d. Groups on a side chain read outwards from the residue. No end group written: not given here. *: point of attachment. C20 diacid = O=C(O)CCCCCCCCCCCCCCCCCCC(=O)*; C18 diacid = O=C(O)CCCCCCCCCCCCCCCCC(=O)*; γGlu = O=C(O)[C@H](CCC(=O)[*:2])N[*:1]; εLys = N[C@@H](CCCCN[*:1])C(=O)[*:2]; AEEA = NCCOCCOCC(=O)O; Aib = CC(C)(N)C(=O)O
// values below are reported EC50
Return type: number; implicit unit nM.

substance	result-unit	measurement
H-Y[Aib]EGTFTSDYSI[Aib]LEKQAQ[Aib]AFVEWLIK([εLys-γGlu-γGlu-γGlu-γGlu-γGlu-γGlu-γGlu-C20 diacid])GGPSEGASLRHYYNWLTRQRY-NH2 [Compound 288]	nM	14.3
H-Y[Aib]EGTFTSDYSI[Aib]LEKQAQ[Aib]AFVEWLIK([εLys-γGlu-γGlu-γGlu-γGlu-γGlu-γGlu-C20 diacid])GGPSSPASLRHYYNWLTRQRY-NH2 [Compound 95]	nM	20.6
H-Y[Aib]EGTFTSDYSI[Aib]LEKQAQ[Aib]AFIEWLIK([γGlu-γGlu-γGlu-γGlu-C18 diacid])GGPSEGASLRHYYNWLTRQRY-NH2 [Compound 247]	nM	11.9
Y[Aib]EGTFTSDYSI[Aib]LEKQAE[Aib]AFVEWLIK([AEEA-AEEA-γGlu-γGlu-γGlu-γGlu-C18 diacid])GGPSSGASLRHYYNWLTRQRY-NH2 [Compound 150]	nM	16.7

Data request, read-out EC50, for H-Y[Aib]EGTFTSDYSI[Aib]LEKQAQ[Aib]AFVEWLIK([εLys-γGlu-γGlu-γGlu-γGlu-γGlu-γGlu-C20 diacid])GGPSSGAS[Aib]RHYYNWLTRQR[dY]-NH2 [Compound 74]
53.4

Data request, read-out EC50, for H-Y[Aib]EGTFTSDYSI[Aib]LEKQAQ[Aib]EFVEWLIK([εLys-γGlu-γGlu-γGlu-γGlu-γGlu-γGlu-C20 diacid])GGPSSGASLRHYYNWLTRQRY-NH2 [Compound 215]
12.4

Data request, read-out EC50, for H-Y[Aib]EGTFTSDYSI[Aib]LEKQAQ[Aib]AFVQWLIK([AEEA-AEEA-γGlu-γGlu-γGlu-γGlu-γGlu-C20 diacid])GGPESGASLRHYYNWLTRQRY-NH2 [Compound 32]
12.2

Data request, read-out EC50, for H-Y[Aib]EGTFTSDYSI[Aib]LEKQAQ[Aib]AFVEWLIK([εLys-γGlu-γGlu-γGlu-γGlu-γGlu-γGlu-C20 diacid])GGPSTGASLRHYYNWLTRQRY-NH2 [Compound 244]
13.5

Data request, read-out EC50, for H-Y[Aib]EGTFTSDYSI[Aib]LEKQAE[Aib]AFVQWLIK([εLys-γGlu-γGlu-γGlu-γGlu-C18 diacid])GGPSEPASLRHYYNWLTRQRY-NH2 [Compound 54]
14
